B1: KLHDC10 (parent)
chain: FGGTGIPFGESNGNGVHVCNVKYK

variants of: B1; test: protein stability index of a GFP-peptide fusion (GPS, HEK-293T) (PSI 1-6); higher = more stable; conditions: c terminus: a fixed tail appended;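 note: lentivirally expressed fusions sorted by FACS into six bins by GFP to DsRed ratio, PSI derived from sequencing read proportions per bin multiplied by bin number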
Everything with protein stability index lower than 2 is Criterion not met; everything else, including exactly 2, is Criterion met.

[Q] # bool: protein stability index of S11H >= 2
[A] Criterion met

[Q] Check if protein stability index >= 2 (inclusive). Item: N20P
[A] Criterion not met

[Q] Reported protein stability index at or above 2? V21G
[A] Criterion not met

[Q] Hi, just wondering whether V21Q shows protein stability index of 2 or higher.
[A] Criterion met

[Q] Hi team, for V16A , is the recorded protein stability index at or above 2?
[A] Criterion met

[Q] Please check the record G5Y and state if its protein stability index is at or above 2.
[A] Criterion not met

[Q] Record G15R ; criterion: protein stability index no lower than 2. Met?
[A] Criterion not met

[Q] Check if protein stability index >= 2 (inclusive). Item: Y23E
[A] Criterion met

[Q] Entry T4V : is its protein stability index no less than 2?
[A] Criterion met

[Q] Is protein stability index at least 2? Consider G5F
[A] Criterion not met

[Q] Determine whether measured protein stability index meets or exceeds 2 for T4M
[A] Criterion not met

[Q] Evaluate G2V : protein stability index at minimum 2?
[A] Criterion not met

[Q] Given the entry G13Y , answer whether its protein stability index meets or surpasses 2.
[A] Criterion met

[Q] Can G9L be said to have protein stability index at or above 2?
[A] Criterion not met

[Q] Threshold query (protein stability index >= 2) on G9S
[A] Criterion not met

[Q] Is the recorded value of protein stability index equal to or greater than 2 for this variant? G3H
[A] Criterion met

[Q] API: above_or_equal(metric=protein stability index, cutoff=2) for item N14A
[A] Criterion not met

[Q] In plain terms: is recorded protein stability index at least 2 for G2H ?
[A] Criterion met

[Q] API: above_or_equal(metric=protein stability index, cutoff=2) for item E10A
[A] Criterion met

[Q] Dear colleague, could you confirm whether K22L has protein stability index at or above 2?
[A] Criterion not met

[Q] Is protein stability index at least 2? Consider F8E
[A] Criterion met

[Q] # check: protein stability index of P7R is greater than or equal to 2
[A] Criterion met

[Q] Could you tell me if the measured protein stability index of K24W reaches 2 or more?
[A] Criterion met

[Q] Check this variant for protein stability index at or above 2: K24L
[A] Criterion met

[Q] Textbook exercise: given the entry G15K , state whether its protein stability index is greater than or equal to 2.
[A] Criterion met

[Q] Textbook exercise: given the entry I6R , state whether its protein stability index is greater than or equal to 2.
[A] Criterion not met

[Q] Exam item: decide whether the reported protein stability index for T4E is at least 2.
[A] Criterion met

[Q] Please tell me: is the variant N20K at or over 2 in terms of protein stability index?
[A] Criterion met

[Q] protein stability index >= 2 for G9A ?
[A] Criterion not met

[Q] Reported protein stability index at or above 2? G3I
[A] Criterion met

[Q] Would you say G3P shows protein stability index at minimum 2?
[A] Criterion met

[Q] Could you please find out whether T4D has protein stability index that meets 2 or exceeds it?
[A] Criterion met

[Q] Could you verify whether the entry F1K shows protein stability index of no less than 2?
[A] Criterion met

[Q] Assess whether reported protein stability index for I6L sits at 2 or higher.
[A] Criterion met

[Q] Please tell me: is the variant P7I at or over 2 in terms of protein stability index?
[A] Criterion not met

[Q] Would you say T4Q shows protein stability index at minimum 2?
[A] Criterion not met

[Q] Does the reported protein stability index for F8L fall at or above the 2 mark?
[A] Criterion met

[Q] Determine whether measured protein stability index meets or exceeds 2 for Y23T
[A] Criterion met

[Q] Is protein stability index at least 2? Consider K22I
[A] Criterion not met

[Q] Confirm if protein stability index reported for the variant V16G is 2 or above.
[A] Criterion met

[Q] Could you tell me if the measured protein stability index of V18T reaches 2 or more?
[A] Criterion met

[Q] Could you tell me if the measured protein stability index of F8Y reaches 2 or more?
[A] Criterion met

[Q] Hi team, for E10M , is the recorded protein stability index at or above 2?
[A] Criterion met

[Q] Check the entry G9M : does protein stability index equal or exceed 2?
[A] Criterion not met
